Attribute: growth inhibition
Experiment: NCI Yeast Anticancer Drug Screen. Data for the cln2 rad14 strain (AID 165);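 also: 0% = growth equal to vehicle treated cultures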
Details: S. cerevisiae cln2 rad14 strain, hits give high values; at 50.0 µM unless noted
Experimental: Growth inhibition of yeast strains with defined genetic alterations is measured as a screen for potential anti-cancer activity. Selected strains with alterations in DNA damage repair or cell cycle control were exposed to compounds and growth inhibition was measured relative to vehicle treated controls. The strain used in this assay is cln2 rad14
The panel holds about 79,000 compounds, 15% with a hit somewhere; the sample as a whole holds those more often.
RECORDED ENDPOINT: growth inhibition (%)

* Nc1c(Cl)ccc2c(Cl)ccnc12 | -21.1
* Nc1ncc2c(=O)[nH][nH]c(=O)c2n1 | 12.4
* O=C(O)CCNC(=O)CNC(=O)OCc1ccccc1 | 5.55
* CCCN=C(N)C(C)=O | 4.85
* Nn1c(CCCl)nc2c(Br)cc(Br)cc2c1=O | 3.25
* C=CCCn1nc(-c2ccccc2)oc1=O | -2.75
* O=C(O)C1CCc2ccccc21 (stereo not drawn) | -12.2
* c1ccc(OC2=NC3=S(S2)SC(Oc2ccccc2)=N3)cc1 | 10.6
* CC(=O)OCC1OC(OC(C)=O)C(NC(=O)c2ccccc2)C(OC(C)=O)C1OC(C)=O (stereo not drawn) | -20.6
* Cc1ccc(NC(=O)CCCl)cc1 | -19.1
* COC(=O)C(C(=O)OC)C1CCCC(=O)C1 (stereo not drawn) | -6.7
* COc1ccc(/C(=N\NC(=S)NN)C(c2ccc(OC)cc2)C2C(=O)Oc3ccccc32)cc1 (stereo not drawn) | -9.3
* CNCCc1cn(C2OC(CO)C(O)C(O)C2O)cn1 (stereo not drawn) | -40.9
